assay: Thermodynamic solubility of the compound at pH 6.5 after 24 hrs by shake flask method using LC-MS analysis; assay type: physicochemical; conditions: buffer, read-out: Therm_solubility
value-kind: solubility thermodynamic at 24 h (µg/mL)

I: COc1ccc(-n2cc(CO[C@H]3O[C@H](CO)[C@@H](O)[C@H](O)[C@@H]3O)nn2)cc1
II: OC[C@H]1O[C@H](n2cc(-c3ccc(C(F)(F)F)cc3)nn2)[C@@H](O)[C@@H](O)[C@@H]1O
Which value of solubility thermodynamic at 24 h is greater, the one for I or the one for II ? Reply briefly: the label of your chosen item.
I
(I: 2600 µg/mL, II: 159 µg/mL)

###

test: Permeability of the compound assessed as membrane retention at pH 5 to 7.4 after 16 hrs by PAMPA assay; format: ADME; conditions: pH 5, 16 h
value-kind: R% (%)

Answered examples (2):
OC[C@H]1O[C@H](OCCc2cn(-c3ccncc3)nn2)[C@@H](O)[C@@H](O)[C@@H]1O : 4.3
OC[C@H]1O[C@H](OCc2cn(Cc3ccccc3)nn2)[C@@H](O)[C@@H](O)[C@@H]1O : 3

A: COc1ccc(Cn2cc(CO[C@H]3O[C@H](CO)[C@@H](O)[C@H](O)[C@@H]3O)nn2)cc1
B: OC[C@H]1O[C@H](n2cc(COc3ccccc3)nn2)[C@@H](O)[C@@H](O)[C@@H]1O
Which value of R% is greater, the one for A or the one for B ? Reply briefly: the label of your chosen item.
B
